experiment: Phase 1 Part 2, multiple ascending dose pharmacokinetics (7 days, q8h); format: in vivo, human; details: human, plasma, oral, 400 mg, Day 1, 400 mg q 8 h, Median; read-out: AUC0-8
ENDPOINT_NAME: AUC(0-t)
Value and unit, in that order.

**Query** Dear colleague, I am looking for the recorded AUC(0-t) of the following molecule: `C=Cc1cc(C(=O)Nc2ccc(C(=N)N)cc2)c(-c2ccc(C(=O)NCC3CC3)nc2C(=O)O)cc1OC`
**Result** 395 ng·h/mL

* * *

test: pKa by UV-metric and potentiometric titration; type: physicochemical; settings: aqueous, UV-metric method, aqueous; read-out: lower pKa
ENDPOINT_NAME: pKa
One number for each entry.

**Query** Dear colleague, I am looking for the recorded pKa of the following compound: `C=Cc1cc(C(=O)Nc2ccc(C(=N)N)cc2)c(-c2ccc(C(=O)NCC3CC3)nc2C(=O)O)cc1OC`
**Result** 2.31

* * *

assay: Phase 1 Part 2, multiple ascending dose pharmacokinetics (7 days, q8h); type: in vivo, human; conditions: human, plasma, oral, 100 mg, Day 7, 100 mg q 8 h, Median
ENDPOINT_NAME: AUC

**Query** Dear colleague, I am looking for the recorded AUC of the following molecule: C=Cc1cc(C(=O)Nc2ccc(C(=N)N)cc2)c(-c2ccc(C(=O)NCC3CC3)nc2C(=O)O)cc1OC [Example 1]
**Result** 246 ng·h/mL

* * *

assay: Phase 1 Part 2, multiple ascending dose pharmacokinetics (7 days, q8h); type: in vivo, human; settings: human, plasma, oral, 400 mg, Day 1, 400 mg q 8 h, GM
ENDPOINT_NAME: Cmax (ng/mL)
Answers are plain numbers, in ng/mL.

**Query** Dear colleague, I am looking for the recorded Cmax of the following compound: `C=Cc1cc(C(=O)Nc2ccc(C(=N)N)cc2)c(-c2ccc(C(=O)NCC3CC3)nc2C(=O)O)cc1OC`
**Result** 119

* * *

assay: Phase 1 Part 2, multiple ascending dose pharmacokinetics (7 days, q8h); format: in vivo, human; conditions: human, plasma, oral, 100 mg, Day 1, 100 mg q 8 h, Median; read-out: AUC0-8
ENDPOINT_NAME: AUC(0-t) (ng·h/mL)
Give bare numbers, in ng·h/mL.

**Query** Dear colleague, I am looking for the recorded AUC(0-t) of the following compound: `C=Cc1cc(C(=O)Nc2ccc(C(=N)N)cc2)c(-c2ccc(C(=O)NCC3CC3)nc2C(=O)O)cc1OC`
**Result** 185

* * *

assay: Further solubility studies in solvents, mixtures and surfactants; format: physicochemical; conditions: 20% PG in 80% PEG400, organic solvent or mixture, thermodynamic from solid, 20% PG in 80% PEG400; read-out: Example 1 Solubility After 24 hrs
ENDPOINT_NAME: solubility at 24 h (mg/mL)
One number for each entry, in mg/mL.

**Query** Dear colleague, I am looking for the recorded solubility at 24 h of the following molecule: `C=Cc1cc(C(=O)Nc2ccc(C(=N)N)cc2)c(-c2ccc(C(=O)NCC3CC3)nc2C(=O)O)cc1OC`
**Result** 52.9

* * *

experiment: Phase 1 Part 2, multiple ascending dose pharmacokinetics (7 days, q8h); format: in vivo, human; conditions: human, plasma, oral, 200 mg, Day 7, 200 mg q 8 h, GM; read-out: t1/2 (converted)
ENDPOINT_NAME: half-life (h)
Numbers only, in h.

**Query** Dear colleague, I am looking for the recorded half-life of the following molecule: `C=Cc1cc(C(=O)Nc2ccc(C(=N)N)cc2)c(-c2ccc(C(=O)NCC3CC3)nc2C(=O)O)cc1OC`
**Result** 12.6

* * *

assay: Phase 1 Part 2, multiple ascending dose pharmacokinetics (7 days, q8h); format: in vivo, human; conditions: human, plasma, oral, 200 mg, Day 7, 200 mg q 8 h, Median
ENDPOINT_NAME: Cmax (ng/mL)
Answers are plain numbers, in ng/mL.

**Query** Dear colleague, I am looking for the recorded Cmax of the following compound: `C=Cc1cc(C(=O)Nc2ccc(C(=N)N)cc2)c(-c2ccc(C(=O)NCC3CC3)nc2C(=O)O)cc1OC`
**Result** 92.3

* * *

test: octanol-PBS pH 7.4 partition coefficient (log D7.4) assay; type: physicochemical; settings: octanol/0.01 M phosphate buffer pH 7.4, 24 hours, LC/MS/MS
ENDPOINT_NAME: logD at 24 h
Numbers only.

C=Cc1cc(C(=O)Nc2ccc(C(=N)N)cc2)c(-c2ccc(C(=O)NCC3CC3)nc2C(=O)O)cc1OC: 1.9

**Query** Dear colleague, I am looking for the recorded logD at 24 h of the following compound: C[C@@H]1C[C@H]2[C@@H]3CCC4=CC(=O)C=C[C@]4(C)[C@@]3(F)[C@@H](O)C[C@]2(C)[C@@]1(O)C(=O)CO [Dexamethasone, reference compound]
**Result** 1.5

* * *

assay: Phase 1 Part 2, multiple ascending dose pharmacokinetics (7 days, q8h); type: in vivo, human; conditions: human, plasma, oral, 800 mg, Day 7, 800 mg q 8 h, GM; read-out: t1/2 (converted)
ENDPOINT_NAME: half-life (h)
Give bare numbers, in h.

**Query** Dear colleague, I am looking for the recorded half-life of the following molecule: `C=Cc1cc(C(=O)Nc2ccc(C(=N)N)cc2)c(-c2ccc(C(=O)NCC3CC3)nc2C(=O)O)cc1OC`
**Result** 7.46

* * *

test: Phase 1 Part 1, single ascending oral dose pharmacokinetics and food effect; format: in vivo, human; conditions: human, plasma, po, 125 mg, 125 mg single oral dose, fasting; GM
ENDPOINT_NAME: AUC(0-inf) (ng·h/mL)
Give bare numbers, in ng·h/mL.

**Query** Dear colleague, I am looking for the recorded AUC(0-inf) of the following compound: `C=Cc1cc(C(=O)Nc2ccc(C(=N)N)cc2)c(-c2ccc(C(=O)NCC3CC3)nc2C(=O)O)cc1OC`
**Result** 197

* * *

assay: Further solubility studies in solvents, mixtures and surfactants; format: physicochemical; settings: mixtures of 90% or more propylene glycol, organic solvent or mixture, thermodynamic from solid, some mixtures composed of 90% or more propylene glycol; read-out: solubility
ENDPOINT_NAME: solubility at 24 h

**Query** Dear colleague, I am looking for the recorded solubility at 24 h of the following compound: C=Cc1cc(C(=O)Nc2ccc(C(=N)N)cc2)c(-c2ccc(C(=O)NCC3CC3)nc2C(=O)O)cc1OC [Example 1]
**Result** > 100 mg/mL

* * *

assay: Phase 1 Part 1, single ascending oral dose pharmacokinetics and food effect; type: in vivo, human; conditions: human, plasma, po, 500 mg, 500 mg single oral dose, FED (high-fat breakfast); GM
ENDPOINT_NAME: Cmax (ng/mL)
Answers are plain numbers, in ng/mL.

**Query** Dear colleague, I am looking for the recorded Cmax of the following molecule: C=Cc1cc(C(=O)Nc2ccc(C(=N)N)cc2)c(-c2ccc(C(=O)NCC3CC3)nc2C(=O)O)cc1OC [Example 1]
**Result** 82.1

* * *

assay: Phase 1 Part 2, multiple ascending dose pharmacokinetics (7 days, q8h); assay type: in vivo, human; conditions: human, plasma, oral, 200 mg, Day 7, 200 mg q 8 h, Median; read-out: t1/2 (converted)
ENDPOINT_NAME: half-life (h)
Answers are plain numbers, in h.

**Query** Dear colleague, I am looking for the recorded half-life of the following compound: C=Cc1cc(C(=O)Nc2ccc(C(=N)N)cc2)c(-c2ccc(C(=O)NCC3CC3)nc2C(=O)O)cc1OC [Example 1]
**Result** 13.5

Source listed as patent US10905683B2.
